Recorded measurements of pIC50, one per entry
- TARGET ENTITY: Acetylcholinesterase (Homo sapiens)
- Sequence (P22303 whole entry): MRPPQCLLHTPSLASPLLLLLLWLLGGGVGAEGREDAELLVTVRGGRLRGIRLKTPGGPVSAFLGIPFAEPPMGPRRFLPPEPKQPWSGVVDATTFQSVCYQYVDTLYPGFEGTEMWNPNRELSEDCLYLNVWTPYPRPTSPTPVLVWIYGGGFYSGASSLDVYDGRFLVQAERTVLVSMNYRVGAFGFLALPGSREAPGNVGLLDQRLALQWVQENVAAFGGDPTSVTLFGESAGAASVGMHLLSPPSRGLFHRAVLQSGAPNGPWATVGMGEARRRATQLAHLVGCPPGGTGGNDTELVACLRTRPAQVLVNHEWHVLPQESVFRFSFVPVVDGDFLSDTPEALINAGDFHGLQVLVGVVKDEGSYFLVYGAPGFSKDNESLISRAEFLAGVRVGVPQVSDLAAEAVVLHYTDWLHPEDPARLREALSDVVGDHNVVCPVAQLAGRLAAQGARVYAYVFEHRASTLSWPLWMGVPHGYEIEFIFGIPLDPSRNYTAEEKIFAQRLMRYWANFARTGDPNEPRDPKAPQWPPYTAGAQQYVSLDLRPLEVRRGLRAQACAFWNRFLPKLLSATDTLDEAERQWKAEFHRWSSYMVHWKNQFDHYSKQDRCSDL
- PROTOCOL DESCRIPTION: Inhibition of human recombinant AChE using acetylthiocholine chloride as substrate preincubated for 15 mins by Ellman's method
Worth noting: pIC50 values are minus log10 of concentrations stated in mol/L.

1. CN(C)c1ccccc1CNCCCCCCCCNc1c2c(nc3ccccc13)CCCC2 :: 8.39
2. CN(C)c1ccccc1CNCCCCCCCCCNc1c2c(nc3ccccc13)CCCC2 :: 8.45

Please look at the following compound next.
Consider the compound CN(C)c1ccccc1CNCCCCCCCNc1c2c(nc3ccccc13)CCCC2 and give its measured pIC50.
8.29
